ASSAY TARGET: T1, VEGF165 (UniProt P15692 27-191)
T1 chain: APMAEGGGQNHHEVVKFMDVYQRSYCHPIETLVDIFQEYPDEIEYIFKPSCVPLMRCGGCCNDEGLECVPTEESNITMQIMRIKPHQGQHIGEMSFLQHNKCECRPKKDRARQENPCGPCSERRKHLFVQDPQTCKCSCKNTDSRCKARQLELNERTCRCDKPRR
PROTOCOL TEXT: Biacore; 100RU VEGF
OUTCOME MEASURE: Kd (nM)
Just the number please, in nM, no unit attached.

- BINDER: "Four-arm D2 tetramer linked with 4-arm PEG of 20 kDa (receptor, free cysteine coupled to a 4-arm 20 kDa maleimide PEG) RPFVEMYSEIPEIIHMTEGRELVIPCRVTSPNITVTLKKFPLDTLIPDGKRIIWDSRKGFIISNATYKEIGLLTCEATVNGHLYKTNYLTHRQT"
  Kd (nM): 1.5
- BINDER: "D2-Cys protein (D2 domain of FLT-1 with HPC4 tag and C-terminal cysteine), monomer (receptor, Expressed in HEK293-EBNA cells and purified on an HPC4 antibody column; glycosylated; also called D2 monomer; TCEP-reduced D2 monomer) RPFVEMYSEIPEIIHMTEGRELVIPCRVTSPNITVTLKKFPLDTLIPDGKRIIWDSRKGFIISNATYKEIGLLTCEATVNGHLYKTNYLTHRQT"
  Kd (nM): 9.61

## Input Specify measured Kd for Four-arm D2 tetramer linked with 4-arm PEG of 10 kDa (receptor, free cysteine coupled to a 4-arm 10 kDa PEG) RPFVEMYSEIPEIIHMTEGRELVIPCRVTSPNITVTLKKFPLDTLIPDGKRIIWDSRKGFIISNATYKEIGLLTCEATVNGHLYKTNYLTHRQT .
## Output 0.84

## Input Identify measured Kd associated with sFLT01 (D2-9Gly-Fc) (Fc fusion) RPFVEMYSEIPEIIHMTEGRELVIPCRVTSPNITVTLKKFPLDTLIPDGKRIIWDSRKGFIISNATYKEIGLLTCEATVNGHLYKTNYLTHRQTGGGGGGGGG
## Output 2.5

## Input Output measured Kd for this item: disulfide-linked D2 dimer (D2 domain with HPC4 tag and C-terminal cysteine) (receptor, disulfide-linked dimer, presumably via the C-terminal cysteine, Two preparations are kept under one id; One formed spontaneously and was SEC-purified from PEGylation reactions or conditioned medium, without copper oxidation ('D2 HPC4 eluate Pk B', 'D2 Pk B'); also called Cu-oxidized dimer; D2 HPC4 eluate Pk B) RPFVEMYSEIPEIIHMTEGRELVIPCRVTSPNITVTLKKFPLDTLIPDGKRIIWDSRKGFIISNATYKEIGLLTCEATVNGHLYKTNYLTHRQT
## Output 1.69

Hello, the source for this data is patent US20130324465A1, in case you need it.
